Target: Neurogenic locus notch homolog protein 2 (Homo sapiens)
Experiment: Notch2 binders on small-molecule microarrays, primary screen, biochemical, small-molecule microarray, 635 nm fluorescence, stem cell growth factors (AID 1073)
Conditions: Notch2 binding, higher = more signal
Output label 1 for composite z-score not less than 0.9; output label 0 otherwise.

Can `O=C(NCc1ccccc1)[C@@H]1c2ccccc2C(=O)N(CC23CC4CC(CC(C4)C2)C3)[C@H]1c1ccc(CO)cc1` be said to have composite z-score at or above 0.9? label 1

Can `CCCCC=C[C@@H](NC(=O)Oc1cccc(C(F)(F)F)c1)c1ccccc1` be said to have composite z-score at or above 0.9? label 1

Can `CCCN1C(=O)[C@]2(CCS(=O)(=O)c3ccccc3)N=C(c3ccc(OCCCO)cc3)O[C@@H]2c2ccccc21` be said to have composite z-score at or above 0.9? label 0

Can C#CCN(Cc1ccccc1Br)C(/C=C/c1ccccc1)CO (stereo not given) be said to have composite z-score at or above 0.9? label 0

* * *

Experiment: adipocyte viability effects, profiling panel, cell-based, 3T3-L1 adipocytes, calcein-AM fluorescence, 48 h, basal (AID 1163); also: test concentration not given here
Settings: 3T3-L1 adipocytes viability, higher = more signal
propertyName: z-score
Note: the reply should be a number with no unit written.

Which z-score is reported for this compound? `O=C(NCC(F)(F)F)[C@@H]1c2ccccc2C(=O)N(C2CCCCC2)[C@H]1c1ccc(CO)cc1` 0.48

Which z-score is reported for this compound? `C=CCNC(=O)[C@H]1[C@@H]2C(=O)O[C@@H](c3ccccc3)[C@@H](c3ccccc3)N2[C@@H](c2ccc(O)cc2)[C@]12C(=O)N(C(=O)OCCOC)c1ccc(C#CCNC(N)=O)cc12` 0.0896

Which z-score is reported for this compound? `O=C1O[C@H](c2ccccc2)[C@H](c2ccccc2)N2[C@H]1[C@@H](C(=O)N1CCN(c3ncccn3)CC1)[C@]1(C(=O)Nc3ccc(C#CC4=CCCCC4)cc31)[C@H]2c1ccc(O)cc1` 0.301

Which z-score is reported for this compound? `CC(C)(C)OC(=O)CC[C@@]12N=C(c3ccc(OCCCO)cc3)O[C@@H]1c1ccccc1N(CCS(=O)(=O)c1ccccc1)C2=O` 0.828

Which z-score is reported for this compound? `COCCOC(=O)N1C(=O)[C@@]2(c3cc(C#CC4=CCCCC4)ccc31)[C@H](C(=O)Nc1nc3ccccc3s1)[C@H]1C(=O)O[C@H](c3ccccc3)[C@H](c3ccccc3)N1[C@@H]2c1ccc(OCCO)cc1` 0.747

Which z-score is reported for this compound? `COC(=O)[C@@]1(Cc2ccccc2)[C@H]2c3cc(C(=O)N4CCCC4)n(CC4CC4)c3C[C@H]2CN1C(=O)c1ccccc1` 0.643

Which z-score is reported for this compound? `COCCOC(=O)N1C(=O)[C@@]2(c3cc(C#Cc4ccc(OC)cc4)ccc31)[C@H](C(=O)N1CCCCCCC1)[C@H]1C(=O)O[C@H](c3ccccc3)[C@H](c3ccccc3)N1[C@@H]2c1ccc(OCCO)cc1` 1.96

Which z-score is reported for this compound? `C=C(COC)/C(=C/C[C@@H](OC(C)=O)c1ccc(CO)o1)c1cnc2ccccc2c1` 0.523

Which z-score is reported for this compound? `CN(C)CCCNC(=O)[C@@]1(c2ccc([N+](=O)[O-])cc2)CC(=O)N(C2CCCCC2)[C@@H]1c1ccc(CO)cc1I` 0.184

Which z-score is reported for this compound? `O=C1O[C@H](c2ccccc2)[C@H](c2ccccc2)N2[C@H]1[C@@H](C(=O)O)[C@]1(C(=O)Nc3ccc(C#CC4=CCCCC4)cc31)[C@H]2c1ccccc1OCCO` -1.21

Which z-score is reported for this compound? `O=C(NCc1ccc(F)cc1)[C@H]1C[C@H]2C(=O)N[C@@H](Cc3ccccc3)C(=O)N2[C@H]1c1ccc(O)cc1` 0.17

Which z-score is reported for this compound? `CCCCC(=C=CC[C@@H](O)c1ccccc1OCCO)CCO` 0.337

Which z-score is reported for this compound? `COc1ccc(C#Cc2ccc3c(c2)[C@]2(C(=O)N3)[C@H](c3ccccc3OCCO)N3[C@H](c4ccccc4)[C@H](c4ccccc4)OC(=O)[C@H]3[C@@H]2C(=O)O)cc1` 0.143

* * *

Molecular target: NADPH oxidase 5 (Homo sapiens) (UniProt Q96PH1)
Sequence (Q96PH1 whole entry, looked up): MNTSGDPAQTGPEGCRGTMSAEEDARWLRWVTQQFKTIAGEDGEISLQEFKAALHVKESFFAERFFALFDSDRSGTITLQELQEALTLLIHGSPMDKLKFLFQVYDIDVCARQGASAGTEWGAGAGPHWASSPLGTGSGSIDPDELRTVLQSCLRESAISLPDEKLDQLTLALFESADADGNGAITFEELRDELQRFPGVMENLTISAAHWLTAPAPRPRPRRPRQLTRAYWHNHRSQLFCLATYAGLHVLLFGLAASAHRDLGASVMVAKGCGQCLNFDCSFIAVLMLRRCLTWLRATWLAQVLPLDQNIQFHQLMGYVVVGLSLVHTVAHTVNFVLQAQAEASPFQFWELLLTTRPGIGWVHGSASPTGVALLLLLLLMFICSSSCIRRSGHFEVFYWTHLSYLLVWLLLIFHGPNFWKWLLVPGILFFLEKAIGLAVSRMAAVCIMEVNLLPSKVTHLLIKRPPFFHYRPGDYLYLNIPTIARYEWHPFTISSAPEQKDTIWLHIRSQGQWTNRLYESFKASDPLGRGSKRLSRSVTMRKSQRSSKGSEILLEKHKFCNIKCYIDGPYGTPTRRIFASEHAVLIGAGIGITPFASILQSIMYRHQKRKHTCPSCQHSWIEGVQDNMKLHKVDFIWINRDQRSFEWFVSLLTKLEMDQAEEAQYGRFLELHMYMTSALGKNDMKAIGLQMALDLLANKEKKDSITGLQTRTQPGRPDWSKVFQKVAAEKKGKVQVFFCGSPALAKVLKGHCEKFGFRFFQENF
Experiment: NOX5-dependent H2O2 signal modulators, primary screen, NOX inhibitor project, cell-based, HEK293-NOX5, Amplex Red fluorescence (AID 1161)
Settings: HEK293-NOX5, ionomycin, 45 min, higher = more signal
Output 1 (yes) for z-score not less than -0.8; output 0 (no) otherwise.

Can `COCCOC(=O)N1C(=O)[C@@]2(c3cc(C#CC4(O)CCCCCC4)ccc31)[C@H](c1ccc(O)cc1)N1[C@H](c3ccccc3)[C@H](c3ccccc3)OC(=O)[C@H]1[C@@H]2C(=O)Nc1nc2ccccc2s1` be said to have z-score at or above -0.8? 1 (yes)

Can `O=C(NCc1ccccc1)[C@@H]1c2ccccc2C(=O)N(CC23CC4CC(CC(C4)C2)C3)[C@H]1c1ccc(CO)cc1` be said to have z-score at or above -0.8? 0 (no)

Can `O=C1c2ccccc2[C@](Cc2ccccc2I)(C(=O)NC2CC2)[C@H](c2ccc(CO)cc2)N1C1CCCCC1` be said to have z-score at or above -0.8? 1 (yes)

Can CCOC(=O)C1=CCC(c2ccc(C)cc2)N(S(=O)(=O)c2ccc(C)cc2)C1 (configuration not stated) be said to have z-score at or above -0.8? 1 (yes)

Can [N-]=[N+]=Nc1ccccc1C[C@]1(C(=O)NCC(O)CO)N=C(c2ccc(OCCCO)cc2)O[C@H]1c1ccccc1N=[N+]=[N-] (some centres not stated) be said to have z-score at or above -0.8? 0 (no)

Can `CC(C)OC(=O)C=C1C[C@@H](c2ccccc2C(F)(F)F)O[C@@H](c2ccccc2C(F)(F)F)O1` be said to have z-score at or above -0.8? 1 (yes)

Can `CN(C)CCCNC(=O)[C@@]1(c2ccc([N+](=O)[O-])cc2)CC(=O)N(C2CCCCC2)[C@@H]1c1ccc(CO)cc1I` be said to have z-score at or above -0.8? 1 (yes)

* * *

Experiment: osmotic lysis modulators in infected erythrocytes, primary screen, PSAC antagonist project, cell-based, P. falciparum Indochina, OD700, 3 h (AID 1156)
Settings: higher = more signal, called active from +8 up or from −8 down
Assign z-score to each entry below.
Note: the reply should be a number with no unit written.

Which z-score is reported for this molecule? CCCCCN1CC=CC23O[C@@H]4/C=C\CCCOC(=O)C4[C@H]2C(=O)N(C(CO)C(C)C)[C@@H]3C1=O (some centres undefined) 0.29

Which z-score is reported for this molecule? `[N-]=[N+]=NCc1ccccc1[C@@H]1OC(c2ccc(OCCCO)cc2)=N[C@]1(CCS(=O)(=O)c1ccccc1)C(=O)NCCN1CCOCC1` 0.854

Which z-score is reported for this molecule? O=C1C2C=CC(C(O)c3c(F)cccc3Cl)N(Nc3ccccc3)C2C(=O)N1c1ccccc1 (centres undefined) 0.419

Which z-score is reported for this molecule? CC(C)C(CO)N1C(=O)[C@@H]2[C@H]3C(=O)OCC=C[C@H]3OC23C=CCN(C(C)C)C(=O)[C@@H]13 (some centres undefined) 0.333

* * *

Test system: wheat germ agglutinin (Triticum aestivum), Alexa647-labelled
Assay: wheat germ agglutinin binders on compound microarrays, profiling panel, artefact control for SMM control-protein annotation, biochemical, small-molecule microarray, 635/667 nm fluorescence (AID 1140);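 also: score merges 667 nm feature emission with signal to noise over triplicate slides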
Conditions: WGA-A647 binding, 635 nm fluorescence, higher = more signal
Assign composite z-score to each entry below.
Note: the reply should be a number with no unit written.

Which composite z-score is reported for this compound? C=CCC(OC(C)=O)[C@@H]1[C@@H](N(Cc2ccc(-c3cccc(C(F)(F)F)c3)o2)C(=O)c2ccc(-c3ccccc3)cc2)c2cc(OCCCO)ccc2N1C(=O)c1ccc(-c2ccccc2)cc1 (stereo partly specified) -0.0266

Which composite z-score is reported for this compound? O=C1NC(=O)C2C1C=CC(C(O)Cc1ccccc1)N2Nc1ccc(Cl)cc1Cl (stereo unspecified) 0.834

Which composite z-score is reported for this compound? CCOC1=C2C(CN(S(=O)(=O)c3ccc(C)cc3)C2c2ccc(C)cc2)C2C(=O)N(c3ccccc3)C(=O)C2C1 (stereo unspecified) 0.4

Which composite z-score is reported for this compound? `CC(C)(C)OC(=O)CC[C@]12N=C(c3ccc(OCCCO)cc3)O[C@H]1c1ccccc1N(CCS(=O)(=O)c1ccccc1)C2=O` 1.08

Which composite z-score is reported for this compound? `Cc1ccc(S[C@]2(C(=O)NCC(F)(F)F)CC(=O)N(C(C)C)[C@@H]2c2ccc(CO)cc2I)cc1` -0.86

Which composite z-score is reported for this compound? `COCCOC(=O)N1C(=O)[C@@]2(c3cc(C#CC4=CCCCC4)ccc31)[C@H](C(N)=O)[C@H]1C(=O)O[C@H](c3ccccc3)[C@H](c3ccccc3)N1[C@@H]2c1ccc(OCCO)cc1` 0.773

Which composite z-score is reported for this compound? `CCOC(=O)C=Cc1cc([N+](=O)[O-])ccc1O` -0.0396

Which composite z-score is reported for this compound? CC1CC/C=C\[C@H]2OC34C=CCN(c5ccc(Cl)cc5)C(=O)[C@H]3N(CCO)C(=O)[C@]4(C)C2C(=O)O1 (stereo partly specified) 0.811

Which composite z-score is reported for this compound? `COCCOC(=O)N1C(=O)[C@@]2(c3cc(C#CC4=CCCCC4)ccc31)[C@H](c1ccc(O)cc1)N1[C@H](c3ccccc3)[C@H](c3ccccc3)OC(=O)[C@H]1[C@@H]2C(N)=O` 0.766

Which composite z-score is reported for this compound? O=C1NC(=O)C2C1C=CC(C(O)c1ccccc1)N2Nc1ccc(Cl)cc1Cl (stereo unspecified) 0.763

Which composite z-score is reported for this compound? `COc1ccc([Si](C)(C)[C@@H]2[C@@H](CCO)O[C@]3(C(=O)N(Cc4ccc(N5C(=O)COc6ccccc65)cc4)c4ccccc43)[C@H]2C)cc1` 0.978

Which composite z-score is reported for this compound? `CCCC[C@@H]1C[C@H]1[C@@H](NC(=O)c1ccco1)c1ccc(Cl)cc1` 1.21

Which composite z-score is reported for this compound? C=C(C)C1C(=C)CN([C@H](CO)c2ccccc2)C1=O (stereo partly specified) -0.187

Which composite z-score is reported for this compound? `CC(C)C(=C=CC[C@@H](O)c1ccccc1OCCO)CCO` 0.201

Which composite z-score is reported for this compound? COc1ccc(C(O)C2C=CC3C(=O)N(c4ccccc4)C(=O)C3N2Nc2ccccc2F)cc1OCc1ccccc1 (stereo unspecified) 1.18

Which composite z-score is reported for this compound? `COCCOC(=O)N1C(=O)[C@@]2(c3cc(C#CCCO)ccc31)[C@H](c1ccc(OCCO)cc1)N1[C@H](c3ccccc3)[C@H](c3ccccc3)OC(=O)[C@H]1[C@@H]2C(=O)N1CCN(c2ncccn2)CC1` 0.624

Provenance of the data: PubChem BioAssay
